experimental system: ACLY (Homo sapiens (Human))
Sequence (P53396 whole entry): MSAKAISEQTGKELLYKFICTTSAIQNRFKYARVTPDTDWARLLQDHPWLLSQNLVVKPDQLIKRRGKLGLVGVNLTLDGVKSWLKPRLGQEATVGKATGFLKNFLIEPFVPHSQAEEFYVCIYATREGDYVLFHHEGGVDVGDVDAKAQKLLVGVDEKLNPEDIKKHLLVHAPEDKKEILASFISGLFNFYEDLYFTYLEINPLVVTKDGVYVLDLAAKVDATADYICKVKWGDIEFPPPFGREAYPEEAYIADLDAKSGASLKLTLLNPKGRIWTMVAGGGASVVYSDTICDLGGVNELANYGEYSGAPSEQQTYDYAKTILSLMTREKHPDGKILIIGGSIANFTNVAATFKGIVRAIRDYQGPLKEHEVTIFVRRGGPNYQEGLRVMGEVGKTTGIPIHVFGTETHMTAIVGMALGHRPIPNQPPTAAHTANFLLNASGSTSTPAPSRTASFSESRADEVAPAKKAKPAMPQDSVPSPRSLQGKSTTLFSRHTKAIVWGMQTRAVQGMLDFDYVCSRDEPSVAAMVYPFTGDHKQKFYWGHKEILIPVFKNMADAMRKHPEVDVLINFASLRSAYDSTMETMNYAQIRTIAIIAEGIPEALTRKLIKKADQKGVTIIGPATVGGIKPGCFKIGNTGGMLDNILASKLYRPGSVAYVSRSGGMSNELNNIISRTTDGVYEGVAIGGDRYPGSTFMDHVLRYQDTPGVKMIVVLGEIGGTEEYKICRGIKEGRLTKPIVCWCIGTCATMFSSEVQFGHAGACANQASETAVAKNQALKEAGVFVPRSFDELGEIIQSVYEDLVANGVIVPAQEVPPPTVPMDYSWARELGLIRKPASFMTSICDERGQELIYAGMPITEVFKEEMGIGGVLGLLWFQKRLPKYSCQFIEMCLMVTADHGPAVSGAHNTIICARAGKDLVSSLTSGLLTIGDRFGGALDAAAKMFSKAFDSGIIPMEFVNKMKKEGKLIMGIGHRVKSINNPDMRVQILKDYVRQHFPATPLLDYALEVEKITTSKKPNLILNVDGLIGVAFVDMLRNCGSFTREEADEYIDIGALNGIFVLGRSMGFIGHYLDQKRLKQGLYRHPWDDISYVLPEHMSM
experiment: InCell Pulse assay (permeate HEK293 cells, bind to and stabilize ACLY)
Format: cell-based
protocol conditions: HEK293 cells transfected with pICP-ACLY(FL)-ePL; 1 hour at 37° C., 55° C. heat pulse 10 minutes; read-out: InCell Pulse IC50 GMean
Readings of IC50 for the listed compounds

compound | IC50
O=C1NCc2ncccc2-c2cc(c(F)cc2F)NS(=O)(=O)c2cc1cc(Cl)c2O [Compound 90] | ≥ 50 µM
Cc1cc(F)c2cc1-c1ccccc1OCCOC(=O)c1cc(Cl)c(O)c(c1)S(=O)(=O)N2 [Compound 50] | < 0.3 µM
O=C1OCc2cccc(c2)Oc2cc(c(F)cc2F)NS(=O)(=O)c2cc1cc(Cl)c2O [Compound 34] | ≥ 50 µM
O=C1OCCc2ccc(F)cc2-c2ccc(F)c(c2)NS(=O)(=O)c2cc1cc(Cl)c2O [Compound 74] | < 0.3 µM
O=C1OCCOc2ccc(Br)cc2-c2cc(c(F)cc2F)NS(=O)(=O)c2cc1cc(Cl)c2O [Compound 24] | < 0.3 µM
O=C1OCCOc2ccccc2-c2cc(c(F)cc2F)NS(=O)(=O)c2cc1ccc2C(F)F [Compound 60] | ≥ 50 µM
CC1CCOC(=O)c2cc(Cl)c(O)c(c2)S(=O)(=O)Nc2cc(c(F)cc2F)-c2ccccc21 (single isomer, unassigned) [Compound 44] | 1 to 50 µM
